B1: MIA2 (parent)
chain: NSISSDKEATVPCTEILTEKKDTI

variants of: B1; assay: protein stability index of a GFP-peptide fusion (GPS, HEK-293T) (PSI 1-6); higher = more stable; details: c terminus: a fixed tail appended;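 also: lentivirally expressed fusions sorted by FACS into six bins by GFP to DsRed ratio, PSI derived from sequencing read proportions per bin multiplied by bin number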
Rule: protein stability index of 5 or more gives Y; anything lower gives N.

FSISSDKEATVPCTEILTEKKDTI [N1F] ... N
NSWSSDKEATVPCTEILTEKKDTI [I3W] ... Y
NSISSDKEATVPCTEVLTEKKDTI [I16V] ... Y
NSISSDKEATVPCTEILTEYKDTI [K20Y] ... N
NSISSDKEATVPCTEILTGKKDTI [E19G] ... Y

Query: Evaluate NSISSDKEATVPCTEILTEKKDWI [T23W] : protein stability index at minimum 5?
Response: N

Query: Evaluate NSISSDKEATVPCVEILTEKKDTI [T14V] : protein stability index at minimum 5?
Response: Y

Query: Evaluate NSISSDKEAVVPCTEILTEKKDTI [T10V] : protein stability index at minimum 5?
Response: Y
